tested system: CHO-XBP1 luciferase reporter, IRE1-XBP1 UPR activation
protocol notes: XBP1 luciferase reporter activation – CHO-XBP1 cells, luminescence, counter-screen for apoptotic UPR arm activators, dose response (AID 489040);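 also: reporter read after six hours of compound exposure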
The source made the active and inactive calls.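 The calls were made as follows: active = mean half-maximal activating concentration from the dose-response fit at or below a set limit; inactive = the rest.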
Labels: yes (1) = active, no (0) = inactive

{"compound": "CCc1cc2c(=O)[nH]c(-c3ccccn3)nc2s1", "label class": "no (0)"}
{"compound": "CC(C)(C)N1CSC(=S)N(Cc2ccccc2)C1", "label class": "no (0)"}
{"compound": "COc1cc(C(=O)Nc2nc(-c3ccc(Cl)cc3)c(C)s2)ccc1OCC(=O)Nc1ccc(F)cc1", "label class": "no (0)"}
{"compound": "C[C@@H]1CN([C@H](C)CO)C(=O)c2cc(NC(=O)Nc3ccc(C(F)(F)F)cc3)ccc2O[C@H]1CN(C)Cc1ccc(Cl)c(Cl)c1", "label class": "no (0)"}
{"compound": "CC1CCC/C=C/C(=O)c2c(O)cc(O)cc2CC(=O)O1 (configuration not stated)", "label class": "no (0)"}
{"compound": "COc1ccccc1N1CCN(Cc2ccc(O)c3ncccc23)CC1", "label class": "no (0)"}
{"compound": "O=S1(=O)Nc2c(ccc3cccnc23)-c2ccccc21", "label class": "no (0)"}
{"compound": "S=C1SCN(Cc2ccccn2)CN1Cc1ccco1", "label class": "no (0)"}
{"compound": "COc1ccccc1N1CCN(/N=C/c2ccc(O)c(O)c2)CC1", "label class": "no (0)"}
{"compound": "S=c1[nH]nc(-c2cc(-c3ccccc3)n[nH]2)n1/N=C/C(Br)=C/c1ccccc1", "label class": "no (0)"}
{"compound": "Cc1ccc2nc(-c3ccc(NC(=S)NC4CC(C)(C)NC(C)(C)C4)cc3)sc2c1", "label class": "no (0)"}
{"compound": "Nc1c(C(=O)Nc2ccc(S(=O)(=O)N3CCCC3)cc2)sc2nc3ccc(OC(F)(F)F)cc3cc12", "label class": "no (0)"}
{"compound": "O=C1C=CC(=O)N1c1ccc(N2CCCCC2)cc1", "label class": "no (0)"}
{"compound": "Cc1cc(C(=O)Cn2ncc(Cl)c(Cl)c2=O)c(C)n1CC(F)(F)F", "label class": "no (0)"}
{"compound": "Oc1c(C(c2ccccc2Cl)N2CCCC2)ccc2cccnc12 (configuration not stated)", "label class": "no (0)"}
{"compound": "C=CCN1C(=O)/C(=C/c2ccc3c(c2)CCCN3CCC)C(=O)NC1=S", "label class": "no (0)"}
{"compound": "COc1ccc(/C=N/Nc2cc(C)nc(-n3nc(C)cc3C)n2)cc1", "label class": "no (0)"}
{"compound": "Cc1ccc(Nc2nc(-c3ccc(O)c(O)c3)cs2)nc1", "label class": "no (0)"}
{"compound": "Cc1ccnc(Nc2nc(-c3ccc(O)c(O)c3)cs2)c1", "label class": "no (0)"}
{"compound": "COc1ccc(N=Cc2c(O)c3ccccc3oc2=O)cc1", "label class": "yes (1)"}
{"compound": "O=C1C(CSCc2ccccc2)NC(=S)N1c1ccccc1 (configuration not stated)", "label class": "no (0)"}
{"compound": "Cc1c(C#N)c(NC(=O)CCl)n(Cc2cccs2)c1C", "label class": "no (0)"}

Cited source for all entries: PubChem BioAssay AID489040
